Source of measurements: paper PMC2756588

TARGET_OR_TEST_SYSTEM: Bem1-2, P29366
Sequence (P29366 139-227): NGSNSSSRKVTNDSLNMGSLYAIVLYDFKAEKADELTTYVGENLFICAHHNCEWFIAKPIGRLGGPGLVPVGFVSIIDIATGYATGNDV
RUN_DESCRIPTION: SPOT array
CONDITIONS_USED: median of control spots 4347
I'd be grateful if you could share measured SPOT intensity for these entries.
The reply should be a number, written without any unit.

Identify SPOT intensity associated with the binder `TKIRRRPQQPLTDFT`
1

Report SPOT intensity for `TKHKAPPPPPPTAET`
0

Give SPOT intensity for `RLSRLLLSLPPESFT`
11

For the binder `NNNKMRPHLPPLSSG` , give its reported SPOT intensity.
16

Return SPOT intensity for the following binder: `RMVRRRPLRVQFSAR`
27

Quote SPOT intensity reported for `HHKRRPTTIDVPGLT` please.
28

Quickly give me recorded SPOT intensity for `RTIRKLPLMSLSEYF`
0

Find the measured SPOT intensity of `RTRRRPPPPPIPSTQ` and report it.
79

Give the reported SPOT intensity for this binder. `QLLNPNRRAPRRPLS`
169

Note down SPOT intensity recorded for `GDHPKGPPPPPPPDE`
3

Consider the binder `QQEQNTPPLPPKPKS` and give its recorded SPOT intensity.
1

Report SPOT intensity for `DLPLPDLPPEPPTEL`
0

Look up and report measured SPOT intensity for this entry: `RSKRLFPVRPMATAH`
14

Quick one: give measured SPOT intensity for `RSRRSSFAYPQQVAI`
0

Quickly give me recorded SPOT intensity for `QPPLPSSAPPIPTSH`
1

State its SPOT intensity for this binder: `NPNRRAPRRPLSTQH`
476

For the binder `MFLISPPASPPPEFD` , give its measured SPOT intensity value.
0
